# kon annotations
Experimental Target: T1, IL-11 (UniProt P20809 22-199, limits assumed)
T1 construct: also called IL-11 protein; IL-11 antigen
T1 sequence (looked up): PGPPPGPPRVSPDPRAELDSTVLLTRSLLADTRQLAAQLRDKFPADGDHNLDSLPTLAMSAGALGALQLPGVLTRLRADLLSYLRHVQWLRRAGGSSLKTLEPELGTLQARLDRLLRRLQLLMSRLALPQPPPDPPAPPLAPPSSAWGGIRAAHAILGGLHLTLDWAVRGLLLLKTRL
Assay Explanation: SPR Biacore, scFv captured, IL-11 400 nM
Method: The measure method included the steps of capturing the humanized single-chain antibody at a flow rate of 10 uL/min. […] Finally, the chip was regenerated with 10 mM glycine buffer.
Your answer should be a plain number; it is taken to be in M⁻¹ s⁻¹.

Recorded results for 3 binders are shown here.
Binder	Units Text	kon
“VH3+VL4”-scFv (scFv) scFv: QVQLVQSGAEVKKPGASVKVSCKASDYTFTNYWLGWVRQAPGQGLEWIGHIYPGGGYTNYNEKFKGRATLTADTSTSTVYMELSSLRSEDTAVYFCARVRSGNDALDFWGQGTLVTVSSGGGGSGGGGSGGGGSEIVLTQSPATLSLSPGERATLSCRASESVDEYGISFMNWFQQKPGQAPRLLIYSASNQGSGIPARFSGSGSGTDFTLTISSLEPEDFAMYFCQQSKEVPWTFGGGTKLEIK	M⁻¹ s⁻¹	41800
“VH1+VL4”-scFv (scFv) scFv: QVQLVQSGAEVKKPGASVKVSCKASDYTFTNYWLGWVRQAPGQGLEWMGHIYPGGGYTNYNEKFKGRVTMTRDTSTSTVYMELSSLRSEDTAVYYCARVRSGNDALDFWGQGTLVTVSSGGGGSGGGGSGGGGSEIVLTQSPATLSLSPGERATLSCRASESVDEYGISFMNWFQQKPGQAPRLLIYSASNQGSGIPARFSGSGSGTDFTLTISSLEPEDFAMYFCQQSKEVPWTFGGGTKLEIK	M⁻¹ s⁻¹	33100
“VH1+VL1”-scFv (scFv, CHO expression supernatant) scFv: QVQLVQSGAEVKKPGASVKVSCKASDYTFTNYWLGWVRQAPGQGLEWMGHIYPGGGYTNYNEKFKGRVTMTRDTSTSTVYMELSSLRSEDTAVYYCARVRSGNDALDFWGQGTLVTVSSGGGGSGGGGSGGGGSEIVLTQSPATLSLSPGERATLSCRASESVDEYGISFMNWYQQKPGQAPRLLIYSASNQGSGIPARFSGSGSGTDFTLTISSLEPEDFAVYYCQQSKEVPWTFGGGTKLEIK	M⁻¹ s⁻¹	35100

Continue with the binder presented below.
// query kon value for entry “VH2+VL1”-scFv (scFv) scFv: QVQLVQSGAEVKKPGASVKVSCKASDYTFTNYWLGWVRQAPGQGLEWIGHIYPGGGYTNYNEKFKGRVTMTADTSTSTVYMELSSLRSEDTAVYFCARVRSGNDALDFWGQGTLVTVSSGGGGSGGGGSGGGGSEIVLTQSPATLSLSPGERATLSCRASESVDEYGISFMNWYQQKPGQAPRLLIYSASNQGSGIPARFSGSGSGTDFTLTISSLEPEDFAVYYCQQSKEVPWTFGGGTKLEIK
53400
